Each recorded value in this set is attributed to PubChem BioAssay AID463173.

- Tested on: Wild type
- assay.method.text: S. aureus survival, RN4220 and DeltatarO strains – OD600, teichoic acid synthesis inhibitors, primary screen (AID 463173)
- measurement.conditions: S. aureus RN4220 wild type/DeltatarO growth, OD600, 18 h, stronger effect = lower value, screened at 18.75 µg/mL (by protocol)
The campaign covered roughly 52,000 compounds. About 1,700 (3.3%) were called active. The full list was thinned out, with actives kept by preference.
survival less than 80% is Satisfied; survival greater than or equal to 80% is Not satisfied.

These solved cases illustrate the format of a correct answer.
molecule	cat
CCC(=O)N1CCc2cc(Br)cc(S(=O)(=O)CCC(=O)NCCc3cccc(C)c3)c21	Satisfied
CC(C)(C)C1CCc2c(sc(NC(=O)c3ccncc3)c2C(=O)Nc2ccccc2Cl)C1 (stereo unspecified)	Not satisfied
COc1cccc(NC(=O)CCc2nnc3n(Cc4ccccc4Cl)c(=O)c4ccccc4n23)c1	Not satisfied
CCOC(=O)C1=C(C)NC(=O)NC1c1c(O)ccc2ccccc12 (stereo unspecified)	Not satisfied
Cc1ccccc1C(=O)Nc1sc2c(c1C(=O)N1CCC(C)CC1)CCC(C)C2 (stereo unspecified)	Satisfied

From here, focus on the item given below.
Report whether reported survival is lower than 80% (strictly) for CC(C)CCNc1ccc(-c2ccc(Cl)cc2)nn1
Not satisfied

* * *

- Test system: Wild type
- assay.method.text: S. aureus survival, RN4220 and DeltatarO strains – OD600, teichoic acid synthesis inhibitors, primary screen (AID 463173)
- measurement.conditions: S. aureus RN4220 wild type/DeltatarO growth, OD600, 18 h, stronger effect = lower value, screened at 18.75 µg/mL (by protocol)
Among all 52,000 compounds or so, about 1,700 (3.3%) were called active. What follows is part of a selection rich in actives, with near analogues and random picks from the rest.
Hi! Just check whether survival is below 70%. Below gives label 1, equal or above gives label 0.

compound	cat
Cc1ccc(Nc2sc(C(=O)c3ccccc3)c(N)c2C(=O)NC(C)C)cc1	label 0
COc1ccccc1N1CCN(C(=O)C2CCN(S(=O)(=O)Cc3ccccc3)CC2)CC1	label 0
CCc1cccc(C)c1NC(=O)CN1CCCN(Cc2ccccc2Cl)S1(=O)=O	label 1
Cc1ccc(COc2ccc3oc(-c4ccccc4)c(C(=O)O)c3c2)cc1	label 1
Cc1ccccc1CN1CCCN(CC(=O)Nc2c(C)cccc2C)S1(=O)=O	label 1
COc1ccc(-c2cc3ncc(C(=O)c4cc([N+](=O)[O-])ccc4O)cn3n2)cc1	label 1
CCCCN(CC)Cc1ccc(CNS(=O)(=O)c2cc3c(cc2Cl)NC(=O)CO3)o1	label 1
O=C(O)c1c(-c2ccccc2)oc2ccc(OCc3c(F)cccc3Cl)cc12	label 1
COc1ccc(NC(=O)CCNS(=O)(=O)c2cccc3nonc23)c(OC)c1	label 1
Cc1cccc(CN2CCN(CC(=O)Nc3c(C)cccc3C)S2(=O)=O)c1	label 0

Report whether reported survival is lower than 70% (strictly) for Cc1ccc(NC(=O)CN2CCCN(Cc3ccccc3Cl)S2(=O)=O)c(C)c1
label 1

Now this one: O=C(Nc1ccc(F)cc1F)c1cccc2c1C(=O)N(C1CCCCC1)C2
label 0

Field entry: COc1ccc(NC(=O)Cc2ccc(NC(=O)N3CCCCc4ccccc43)cc2)c(OC)c1
label 1

Okay, and Cc1ccc(-c2cc3ncc(C(=O)c4cc(Cl)c(C)cc4O)cn3n2)cc1 ?
label 0

Another: CCOC(=O)C1CCN(S(=O)(=O)c2ccc3c(c2)NC(=O)C(C)C(=O)N3)CC1 (stereo unspecified)
label 0

And what about the compound O=C1COc2cc(S(=O)(=O)NCc3ccco3)c(Cl)cc2N1 ?
label 0
